assay-summary: Hemolytic assay
Assay type: cell-based, human
settings: human, human red blood cells, 2% (v/v)
Peptide text beside a SMILES is read from it.
assay-endpoint: HC50 at 1 h (µM)
Write the value in µM as a bare number.

[
  {
    "compound": "CC(C)C[C@H](NC(=O)[C@H](CC(C)C)NC(=O)[C@H](CCCCN)NC(=O)[C@H](CC(C)C)NC(=O)CNC(=O)[C@H](CC(C)C)NC(=O)[C@H](CO)NC(=O)[C@H](CC(C)C)NC(=O)[C@H](CC(C)C)NC(=O)[C@H](CC(C)C)NC(=O)[C@H](CO)NC(=O)[C@H](CC(C)C)NC(=O)[C@@H](N)CCCCN)C(N)=O [DFT560, KLSLLLSLGLKLL] (H-KLSLLLSLGLKLL-NH2; N-terminus and C-terminus assumed)",
    "assay-endpoint": "HC50 at 1 h",
    "result-value": 25
  },
  {
    "compound": "CC(C)C[C@H](NC(=O)[C@H](CC(C)C)NC(=O)[C@H](CCCCN)NC(=O)CNC(=O)[C@H](CC(C)C)NC(=O)[C@H](CC(C)C)NC(=O)[C@H](CO)NC(=O)[C@H](CC(C)C)NC(=O)[C@H](CC(C)C)NC(=O)[C@H](CC(C)C)NC(=O)[C@H](CO)NC(=O)[C@H](CC(C)C)NC(=O)CN)C(N)=O [DFT502, GLSLLLSLLGKLL] (H-GLSLLLSLLGKLL-NH2; N-terminus and C-terminus assumed)",
    "assay-endpoint": "HC50 at 1 h",
    "result-value": 3.1
  },
  {
    "compound": "CC(C)C[C@H](NC(=O)[C@H](CCCCN)NC(=O)CNC(=O)[C@H](CC(C)C)NC(=O)[C@H](CC(C)C)NC(=O)[C@H](CC(C)C)NC(=O)[C@H](CO)NC(=O)[C@H](CC(C)C)NC(=O)[C@H](CC(C)C)NC(=O)[C@H](CC(C)C)NC(=O)[C@H](CO)NC(=O)[C@H](CC(C)C)NC(=O)CN)C(N)=O [DFT504, GLSLLLSLLLGKL] (H-GLSLLLSLLLGKL-NH2; N-terminus and C-terminus assumed)",
    "assay-endpoint": "HC50 at 1 h",
    "result-value": 8
  }
]

// next item, HC50 at 1 h requested
// lookup HC50 at 1 h for CC(C)C[C@H](NC(=O)[C@H](CC(C)C)NC(=O)[C@H](CCCCN)NC(=O)CNC(=O)[C@H](CC(C)C)NC(=O)[C@H](CC(C)C)NC(=O)[C@H](CC(C)C)NC(=O)[C@H](CC(C)C)NC(=O)[C@H](CO)NC(=O)[C@H](CO)NC(=O)[C@H](CC(C)C)NC(=O)[C@H](CC(C)C)NC(=O)CN)C(N)=O [DFT505, GLLSSLLLLGKLL] (H-GLLSSLLLLGKLL-NH2; N-terminus and C-terminus assumed)
20

====

Attribute: MIC
Tested on: S. aureus USA300
assay-summary: microbe, parasite or virus in culture
Assay type: cell-based, Staphylococcus aureus
settings: Staphylococcus aureus, MRSA / USA300; Table 14; read-out: MIC S. aureus USA300 (MRSA)
Write the value in µM as a bare number.

Previously resolved entries follow.
[
  {
    "molecule": "C[C@@H](O)[C@H]1C(=O)N2C(C(=O)O)=C(S[C@@H]3CN[C@H](CNS(N)(=O)=O)C3)[C@H](C)[C@H]12 [Doripenem, reference compound]",
    "MIC (µM)": 0.25
  },
  {
    "molecule": "CCCCCCCCCC(=O)N[C@@H](Cc1c[nH]c2ccccc12)C(=O)N[C@H](CC(N)=O)C(=O)N[C@@H](CC(=O)O)C(=O)N[C@@H]1C(=O)NCC(=O)N[C@@H](CCCN)C(=O)N[C@@H](CC(=O)O)C(=O)N[C@H](C)C(=O)N[C@@H](CC(=O)O)C(=O)NCC(=O)N[C@H](CO)C(=O)N[C@@H]([C@H](C)CC(=O)O)C(=O)N[C@@H](CC(=O)c2ccccc2N)C(=O)O[C@@H]1C [Daptomycin]",
    "MIC (µM)": 4
  }
]

What measured MIC is associated with NC[C@H]1O[C@H](O[C@H]2[C@H](O)[C@@H](O[C@H]3O[C@H](CO)[C@@H](O)[C@H](N)[C@H]3O)[C@H](N)C[C@@H]2N)[C@H](N)C[C@@H]1O [Tobramycin, reference compound] on S. aureus USA300?
4

Try CO[C@H]1/C=C/O[C@@]2(C)Oc3c(C)c(O)c4c(O)c(cc(O)c4c3C2=O)NC(=O)/C(C)=C\C=C\[C@H](C)[C@H](O)[C@@H](C)[C@@H](O)[C@@H](C)[C@H](OC(C)=O)[C@@H]1C [Rifamycin, reference compound] next.
0.25
